Origin of measurements: patent US20250230138A1

- target-of-assay: KRAS-PI3Kα interaction (KRAS-Q25A binding to avi-tagged full length PI3Kα) (Homo sapiens (Human), UniProt P42336)
- Sequence (P42336 whole entry, looked up, stated change not applied): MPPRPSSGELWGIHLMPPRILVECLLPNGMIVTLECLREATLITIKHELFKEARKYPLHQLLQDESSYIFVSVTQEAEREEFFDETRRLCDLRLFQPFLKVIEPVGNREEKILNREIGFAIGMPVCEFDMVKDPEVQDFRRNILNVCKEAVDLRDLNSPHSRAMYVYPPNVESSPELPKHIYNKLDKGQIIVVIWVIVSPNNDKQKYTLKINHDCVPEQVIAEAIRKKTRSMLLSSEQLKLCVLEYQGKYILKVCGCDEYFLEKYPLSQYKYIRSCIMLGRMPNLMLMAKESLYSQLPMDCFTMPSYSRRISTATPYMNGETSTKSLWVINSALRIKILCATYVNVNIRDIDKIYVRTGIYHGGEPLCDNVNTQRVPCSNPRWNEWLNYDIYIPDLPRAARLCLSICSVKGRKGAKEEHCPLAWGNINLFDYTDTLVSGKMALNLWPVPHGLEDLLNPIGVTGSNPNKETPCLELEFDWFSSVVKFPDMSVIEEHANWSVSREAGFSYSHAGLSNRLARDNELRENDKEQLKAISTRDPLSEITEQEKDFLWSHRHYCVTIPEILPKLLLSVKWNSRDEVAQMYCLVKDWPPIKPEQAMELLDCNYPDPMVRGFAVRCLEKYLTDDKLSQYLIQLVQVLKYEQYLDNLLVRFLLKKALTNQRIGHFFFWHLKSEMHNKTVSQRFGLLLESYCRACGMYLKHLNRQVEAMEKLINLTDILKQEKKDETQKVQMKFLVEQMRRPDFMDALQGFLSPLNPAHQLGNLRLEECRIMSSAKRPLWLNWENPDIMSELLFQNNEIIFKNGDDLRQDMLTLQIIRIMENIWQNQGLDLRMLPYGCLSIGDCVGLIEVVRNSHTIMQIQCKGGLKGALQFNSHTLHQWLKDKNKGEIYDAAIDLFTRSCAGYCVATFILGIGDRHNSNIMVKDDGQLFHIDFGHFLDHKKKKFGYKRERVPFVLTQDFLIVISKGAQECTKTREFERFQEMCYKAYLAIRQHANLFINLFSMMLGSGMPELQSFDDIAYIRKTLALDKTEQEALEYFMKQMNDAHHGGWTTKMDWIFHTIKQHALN
- Sequence (P27986 whole entry partner, looked up): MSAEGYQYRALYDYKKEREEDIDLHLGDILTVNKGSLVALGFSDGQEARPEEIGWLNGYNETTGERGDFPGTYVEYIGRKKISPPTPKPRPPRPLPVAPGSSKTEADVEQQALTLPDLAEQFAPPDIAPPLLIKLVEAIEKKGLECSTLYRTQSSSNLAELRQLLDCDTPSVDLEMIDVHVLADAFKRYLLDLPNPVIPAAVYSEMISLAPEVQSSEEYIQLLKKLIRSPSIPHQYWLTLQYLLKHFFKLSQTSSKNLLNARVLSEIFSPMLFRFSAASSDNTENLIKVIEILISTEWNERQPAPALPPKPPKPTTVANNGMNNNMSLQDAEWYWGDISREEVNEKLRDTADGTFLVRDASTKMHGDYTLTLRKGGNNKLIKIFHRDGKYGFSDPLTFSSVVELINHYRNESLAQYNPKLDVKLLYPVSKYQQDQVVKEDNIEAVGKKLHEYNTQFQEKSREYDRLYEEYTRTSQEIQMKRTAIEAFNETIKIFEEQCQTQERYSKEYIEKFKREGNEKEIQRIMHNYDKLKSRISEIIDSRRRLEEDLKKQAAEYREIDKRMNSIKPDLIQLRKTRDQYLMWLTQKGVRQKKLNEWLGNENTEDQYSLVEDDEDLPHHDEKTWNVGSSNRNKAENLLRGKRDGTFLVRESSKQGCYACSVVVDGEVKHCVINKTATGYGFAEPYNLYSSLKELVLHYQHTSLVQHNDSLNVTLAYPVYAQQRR
- method: Disrupting KRAS-PI3Kα interaction by SPR inhibition assay
- assay-conditions: KRAS-Q25A at 20 μM, 25° C.
measurement-label: IC50

| compound | result-value |
| --- | --- |
| COCCOc1cc(F)ccc1-c1c(-c2ccc(=O)n(C(C)C)c2)nc(-c2ccc3c(c2)CCNC3)c2ccsc12 | < 5 µM |
| COCCOc1cc(F)ccc1-c1c(-c2nc(CO)cs2)nc(-c2ccc3c(c2)CCNC3)c2ccsc12 | 5 to 25 µM |
| COCCOc1cc(F)ccc1-c1c(-c2cccc(CNC(=O)C(C)C)c2)nc(-c2ccc3c(c2)CCNC3)c2ccsc12 [compound 14] | 5 to 25 µM |
| CCC(=O)NCc1cccc(-c2nc(-c3ccc4c(c3)CCNC4)c3ccsc3c2-c2ccc(F)cc2OCCOC)c1 | 5 to 25 µM |
| COCCOc1cc(F)ccc1-c1c(-c2nc3ccc(C(C)C)cc3[nH]2)nc(-c2ccc3c(c2)CCNC3)c2ccsc12 | > 25 µM |
| C=CC(=O)NCCc1cccc(-c2nc(-c3ccc4c(c3)CCNC4)c3ccsc3c2-c2ccc(F)cc2OCCOC)c1 | < 5 µM |
| C=CC(=O)N1CC[C@@H](n2cc(-c3nc(-c4ccc5c(c4)CCNC5)c4ccsc4c3-c3ccc(F)cc3OCCOC)cn2)C1 | 5 to 25 µM |
